Here the recorded inhibition is given for each entry.
Assay: inhibitors of platelet dense granule secretion, primary screen, cell-based, MLPCN, human platelets (AID 1663)
Details: human platelet-rich plasma, SFLLRN dense granule ATP release, luminescence; hits give high values;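 compounds screened at 7.5 µM in platelet-rich plasma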
About 660 (0.22%) of roughly 300,000 compounds were called active. The sample as a whole holds a higher share of actives than the screen did.

Molecule	inhibition (%)
CCn1c(SCC(=O)NC2CCCC2)nnc1-c1ccoc1C	-1.97
CNC(=O)C1CC(=O)N(Cc2ccc3c(c2)OCO3)C(=Nc2ccc(F)cc2)S1 (configuration not stated)	-5.44
CCCC(C)C(=O)OCC(=O)Nc1c(Br)cc(C)cc1Br (configuration not stated)	20.5
O=[N+]([O-])c1ncc(Br)cc1Nc1ccccc1	-1.96
C=CCn1c(C)cc(C2=NNC(=NCC)SC2)c1C	50.4
O=C(Nc1ccn(Cc2ccccc2)n1)c1n[nH]c([N+](=O)[O-])c1Cl	0.241
O=C(Nc1ccn(Cc2ccccc2)n1)c1cccc(F)c1	7.39
CN(C)S(=O)(=O)c1cccc(C(=O)OCC(=O)N2CCCC2=O)c1	-9.7
Cc1c(Cl)cccc1NC(=O)NCc1ccc(C)n1C	-4.12
CCOc1ccc(C2C3=C(CCCC3=O)N(CC(=O)O)C3=C2C(=O)CCC3)cc1	-23.7
C=CCn1c(C)cc(C(=O)CN2C(=O)c3ccccc3C2=O)c1C	6.9
CCOC(=O)N1CCN(C(=O)c2ccc3c(=O)n(CCc4ccc(OC)c(OC)c4)c(=O)[nH]c3c2)CC1	-6.61
Cc1cccc(NC(=O)CCn2c(=O)oc3ccccc32)c1	8.63
COc1ccc(-n2cc(-c3ccccc3)c3c(=S)nc[nH]c32)cc1	5.15
Cc1ccc2c(cnn2C(=O)CCC(=O)NC2CCCC2)c1	6.24
COc1cc(NC(=S)NNC(=O)CC(C)C)c(OC)cc1Cl	-6.51
COc1ccc(/C=N/NC(=O)c2ccc3c(c2)OCCO3)c(OC)c1	-1.2

###

Test: inhibitors of platelet dense granule secretion, primary screen, cell-based, MLPCN, human platelets (AID 1663)
Settings: human platelet-rich plasma, SFLLRN dense granule ATP release, luminescence; hits give high values;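 compounds screened at 7.5 µM in platelet-rich plasma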
Screen size: about 300,000 compounds; about 660 (0.22%) were called active. What follows is part of a selection rich in actives, with near analogues and random picks from the rest.

Molecule	inhibition [%]
OC(CNCc1ccc(Cl)c(Cl)c1)c1ccccc1 (stereo not drawn)	52.7
CC(C)Cn1c(=O)c2ccccc2n2c(CCC(=O)NCc3ccccn3)nnc12	3.52
COc1ccccc1NC(=O)Nc1nnc(Cc2ccc(F)cc2)s1	1.62
Cc1ccc(-n2ncc3c2CCCC3NC(=O)c2cnccn2)cc1C (stereo not drawn)	-0.139
O=C(Oc1ccc(-c2nc(-c3ccccn3)no2)cc1)c1ccccc1	83.2
O=C(CN(C(=O)c1nsc(Cl)c1Cl)c1cccc(F)c1)NC1CCCC1	-4.29
CCc1ccc(-c2nc(SCC(=O)NC3CCCC3)n[nH]2)cc1	-5.4
Cc1ccc(NC(=O)OCc2cncs2)cc1	-1.58
